# STUDY TARGET: T1, human ASGR-1 (wild type) (human, UniProt P07306 1-291)
# T1 construct: also called wt ASGR1; huASGR-1
# T1 sequence: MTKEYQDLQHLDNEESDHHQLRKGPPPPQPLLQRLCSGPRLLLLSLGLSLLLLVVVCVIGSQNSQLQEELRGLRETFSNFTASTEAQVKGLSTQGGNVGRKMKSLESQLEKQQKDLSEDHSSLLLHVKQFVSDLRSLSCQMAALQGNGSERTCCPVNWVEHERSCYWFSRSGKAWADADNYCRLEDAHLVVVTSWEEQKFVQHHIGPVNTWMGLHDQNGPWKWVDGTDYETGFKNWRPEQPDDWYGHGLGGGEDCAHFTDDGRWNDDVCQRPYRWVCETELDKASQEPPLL
# PROTOCOL: FACS ratio: 65C12 geomean / this mAb geomean
Measured Expression Normalization to mAb 65C12 values are reported for all entries that follow.
Provide a numeric answer; units are not to be included.

Worked examples, 2 binders total:
>  <BINDER>
184E7 (antibody, V domains shown, mAb) VH: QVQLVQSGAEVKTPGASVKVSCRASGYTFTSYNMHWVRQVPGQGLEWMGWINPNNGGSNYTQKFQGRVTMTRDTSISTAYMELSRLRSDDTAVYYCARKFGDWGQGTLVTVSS VL: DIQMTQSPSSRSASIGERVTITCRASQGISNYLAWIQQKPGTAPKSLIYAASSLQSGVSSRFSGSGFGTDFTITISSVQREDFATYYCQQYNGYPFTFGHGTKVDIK

>  <MEASURED PROPERTY>
Expression Normalization to mAb 65C12

>  <VALUE MEASURED>
1.31

$$$$
>  <BINDER>
22G5 (antibody, V domains shown, mAb) VH: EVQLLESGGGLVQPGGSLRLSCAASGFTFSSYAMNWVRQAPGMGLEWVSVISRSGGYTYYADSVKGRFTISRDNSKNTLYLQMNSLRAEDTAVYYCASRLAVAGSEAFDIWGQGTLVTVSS VL: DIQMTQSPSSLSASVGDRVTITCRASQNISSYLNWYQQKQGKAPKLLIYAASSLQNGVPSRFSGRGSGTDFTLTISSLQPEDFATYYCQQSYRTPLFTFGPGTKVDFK

>  <MEASURED PROPERTY>
Expression Normalization to mAb 65C12

>  <VALUE MEASURED>
1.24

$$$$

// next entry
[Q] Entry 60E8 (antibody, V domains shown, mAb) VH: QVQLQESGPGLVRPSATLSLTCTVSGGSISRSSYYWGWIRQPPGKGLEWIGSIYYSGSASYNPSLKSRVTISVDTSENQFSLRLSSVTAADTAVYYCARLDSGWSFDYWGQGTLVTVSS VL: DIQMTQSPSSLSASVGDRVTFTCRASQGIRNDLGWFQQKPGKAPKRLIYAASSLQSGVPSRFSGSGSGTEFTLTISSLQPEDFATYYCLQHSSYPLTFGGGTKVEIK has what Expression Normalization to mAb 65C12?
[A] 1.45
